- test_description: Phase 1 single-dose study, plasma PK of solriamfetol by level of renal function
- Format: in vivo, human
- test_parameters: both sexes, human, plasma, oral, 75 mg, Group 1 normal renal function; single 75-mg dose; read-out: Cmax, mean ± SD (%CV)
measured_property: Cmax (ng/mL)
Please state the figure in ng/mL; there is no need to write the unit.

Consider the compound NC(=O)OC[C@H](N)Cc1ccccc1 [solriamfetol, [R]-2-amino-3-phenylpropylcarbamate] and give its measured Cmax.
499

----------
- test_description: Phase 1 single-dose study, plasma PK of solriamfetol by level of renal function
- Type: in vivo, human
- test_parameters: both sexes, human, plasma, oral, 75 mg, Group 4 severe renal impairment; single 75-mg dose; over 72 hours; read-out: AUCt, geometric LS mean (converted)
- Experimental: In healthy subjects with normal renal function, solriamfetol HCl is renally excreted ~90% unchanged within 48 hours of administration. […] Eligible participants were assigned to 1 of 5 groups according to renal disease status as measured by the estimated glomerular filtration rate (eGFR) on the day prior to dosing, calculated using the Modification in Diet in Renal Disease equation. […]
measured_property: AUC(0-t) (ng·h/mL)
Please state the figure in ng·h/mL; there is no need to write the unit.

Consider the compound NC(=O)OC[C@H](N)Cc1ccccc1 [solriamfetol, [R]-2-amino-3-phenylpropylcarbamate] and give its measured AUC(0-t).
15500

----------
- test_description: Phase 1 single-dose study, plasma PK of solriamfetol by level of renal function
- Type: in vivo, human
- test_parameters: both sexes, human, plasma, oral, 75 mg, Group 5.2 ESRD with hemodialysis; single 75-mg dose; n=6; read-out: t½, mean ± SD (%CV) (converted)
- Description: In healthy subjects with normal renal function, solriamfetol HCl is renally excreted ~90% unchanged within 48 hours of administration. […] Eligible participants were assigned to 1 of 5 groups according to renal disease status as measured by the estimated glomerular filtration rate (eGFR) on the day prior to dosing, calculated using the Modification in Diet in Renal Disease equation. […]
measured_property: half-life (h)
Please state the figure in h; there is no need to write the unit.

Consider the compound NC(=O)OC[C@H](N)Cc1ccccc1 [solriamfetol, [R]-2-amino-3-phenylpropylcarbamate] and give its measured half-life.
165

----------
- test_description: Phase 1 study, removal of solriamfetol by 4-hour hemodialysis in ESRD
- Format: in vivo, human
- test_parameters: both sexes, human, dialysate, oral, 75 mg, day 1
measured_property: clearance (mL/min)
Please state the figure in mL/min; there is no need to write the unit.

Consider the compound NC(=O)OC[C@H](N)Cc1ccccc1 [solriamfetol, [R]-2-amino-3-phenylpropylcarbamate] and give its measured clearance.
207

----------
- test_description: Phase 1 single-dose study, plasma PK of solriamfetol by level of renal function
- Format: in vivo, human
- test_parameters: both sexes, human, plasma, oral, 75 mg, Group 3 moderate renal impairment; single 75-mg dose; read-out: AUC∞, geometric LS mean
measured_property: AUC(0-inf)

Consider the compound NC(=O)OC[C@H](N)Cc1ccccc1 [solriamfetol, [R]-2-amino-3-phenylpropylcarbamate] and give its measured AUC(0-inf).
10000 ng·h/mL

----------
- test_description: Phase 1 single-dose study, plasma PK of solriamfetol by level of renal function
- Assay type: in vivo, human
- test_parameters: both sexes, human, plasma, oral, 75 mg, Group 5.1 ESRD without hemodialysis; single 75-mg dose; read-out: Cmax, mean ± SD (%CV)
measured_property: Cmax (ng/mL)
Please state the figure in ng/mL; there is no need to write the unit.

Consider the compound NC(=O)OC[C@H](N)Cc1ccccc1 [solriamfetol, [R]-2-amino-3-phenylpropylcarbamate] and give its measured Cmax.
474

----------
- test_description: Phase 1 single-dose study, plasma PK of solriamfetol by level of renal function
- Format: in vivo, human
- test_parameters: both sexes, human, plasma, oral, 75 mg, Group 1 normal renal function; single 75-mg dose; read-out: tmax, median (min, max)
measured_property: Tmax (h)
Please state the figure in h; there is no need to write the unit.

Consider the compound NC(=O)OC[C@H](N)Cc1ccccc1 [solriamfetol, [R]-2-amino-3-phenylpropylcarbamate] and give its measured Tmax.
1.3

----------
- test_description: Phase 1 single-dose study, plasma PK of solriamfetol by level of renal function
- Assay type: in vivo, human
- test_parameters: both sexes, human, plasma, oral, 75 mg, Group 4 severe renal impairment; single 75-mg dose; read-out: tmax, median (min, max)
measured_property: Tmax (h)
Please state the figure in h; there is no need to write the unit.

Consider the molecule NC(=O)OC[C@H](N)Cc1ccccc1 [solriamfetol, [R]-2-amino-3-phenylpropylcarbamate] and give its measured Tmax.
2

----------
- test_description: Phase 1 single-dose study, plasma PK of solriamfetol by level of renal function
- Type: in vivo, human
- test_parameters: both sexes, human, plasma, oral, 75 mg, Group 5.1 ESRD without hemodialysis; single 75-mg dose; read-out: Cmax, geometric LS mean
measured_property: Cmax (ng/mL)
Please state the figure in ng/mL; there is no need to write the unit.

Consider the molecule NC(=O)OC[C@H](N)Cc1ccccc1 [solriamfetol, [R]-2-amino-3-phenylpropylcarbamate] and give its measured Cmax.
469

----------
- test_description: Phase 1 single-dose study, plasma PK of solriamfetol by level of renal function
- Type: in vivo, human
- test_parameters: both sexes, human, plasma, oral, 75 mg, Group 3 moderate renal impairment; single 75-mg dose; over 48 h; read-out: AUCt, mean ± SD (%CV)
measured_property: AUC(0-t) (ng·h/mL)
Please state the figure in ng·h/mL; there is no need to write the unit.

Consider the molecule NC(=O)OC[C@H](N)Cc1ccccc1 [solriamfetol, [R]-2-amino-3-phenylpropylcarbamate] and give its measured AUC(0-t).
9230

----------
- test_description: Phase 1 single-dose study, plasma PK of solriamfetol by level of renal function
- Assay type: in vivo, human
- test_parameters: both sexes, human, plasma, oral, 75 mg, Group 4 severe renal impairment; single 75-mg dose; read-out: Vd/F, mean ± SD (%CV)
measured_property: Vd/F (L)
Please state the figure in L; there is no need to write the unit.

Consider the compound NC(=O)OC[C@H](N)Cc1ccccc1 [solriamfetol, [R]-2-amino-3-phenylpropylcarbamate] and give its measured Vd/F.
157

----------
- test_description: Phase 1 single-dose study, plasma PK of solriamfetol by level of renal function
- Assay type: in vivo, human
- test_parameters: both sexes, human, plasma, oral, 75 mg, Group 2 mild renal impairment; single 75-mg dose; over 48 hours; read-out: AUCt, geometric LS mean (converted)
- Method: In healthy subjects with normal renal function, solriamfetol HCl is renally excreted ~90% unchanged within 48 hours of administration. […] Eligible participants were assigned to 1 of 5 groups according to renal disease status as measured by the estimated glomerular filtration rate (eGFR) on the day prior to dosing, calculated using the Modification in Diet in Renal Disease equation. […]
measured_property: AUC(0-t) (ng·h/mL)
Please state the figure in ng·h/mL; there is no need to write the unit.

Consider the compound NC(=O)OC[C@H](N)Cc1ccccc1 [solriamfetol, [R]-2-amino-3-phenylpropylcarbamate] and give its measured AUC(0-t).
6470

----------
- test_description: Phase 1 single-dose study, plasma PK of solriamfetol by level of renal function
- Type: in vivo, human
- test_parameters: both sexes, human, plasma, oral, 75 mg, Group 1 normal renal function; single 75-mg dose; read-out: AUC∞, mean ± SD (%CV)
measured_property: AUC(0-inf) (ng·h/mL)
Please state the figure in ng·h/mL; there is no need to write the unit.

Consider the compound NC(=O)OC[C@H](N)Cc1ccccc1 [solriamfetol, [R]-2-amino-3-phenylpropylcarbamate] and give its measured AUC(0-inf).
5270

----------
- test_description: Phase 1 single-dose study, plasma PK of solriamfetol by level of renal function
- Assay type: in vivo, human
- test_parameters: both sexes, human, plasma, oral, 75 mg, Group 4 severe renal impairment; single 75-mg dose; read-out: Cmax, mean ± SD (%CV)
measured_property: Cmax
Answer with the value and then the unit.

Consider the compound NC(=O)OC[C@H](N)Cc1ccccc1 [solriamfetol, [R]-2-amino-3-phenylpropylcarbamate] and give its measured Cmax.
553 ng/mL

----------
- test_description: Phase 1 single-dose study, urinary excretion of solriamfetol
- Format: in vivo, human
- test_parameters: both sexes, human, urine, oral, 75 mg, Group 1 normal renal function; single 75-mg dose; read-out: CLR, renal clearance, mean ± SD (%CV) (converted)
measured_property: CL renal (mL/min)
Please state the figure in mL/min; there is no need to write the unit.

Consider the compound NC(=O)OC[C@H](N)Cc1ccccc1 [solriamfetol, [R]-2-amino-3-phenylpropylcarbamate] and give its measured CL renal.
283

----------
- test_description: Phase 1 single-dose study, plasma PK of solriamfetol by level of renal function
- Assay type: in vivo, human
- test_parameters: both sexes, human, plasma, oral, 75 mg, Group 2 mild renal impairment; single 75-mg dose; read-out: tmax, median (min, max)
measured_property: Tmax (h)
Please state the figure in h; there is no need to write the unit.

Consider the compound NC(=O)OC[C@H](N)Cc1ccccc1 [solriamfetol, [R]-2-amino-3-phenylpropylcarbamate] and give its measured Tmax.
1.5
